experimental.system: iNOS (Mus musculus, UniProt P29477)
test.method.notes: biochemical
Counter-ions that a name gives are not always drawn.
parameter: pIC50
Numbers only, as −log10 of the molar value.

Any idea what pIC50 was measured for CCSC(=N)N [SEITU, 2-ethyl-2-thiopseudourea hydrobromide] ? 7.49

* * *

experimental.system: iNOS (Mus musculus)
test.method.notes: iNOS SPA enzyme assay, effect of solvents
Format: biochemical, murine
Design: purchased Cayman Chemical Company 60864
assay.setup: 10% solvent; 0 min
parameter: Time (mins) cpm, 0

The following compounds have reported results that may help.
- compound: "CCO [ethanol]"
  experimental.system: "iNOS (Mus musculus)"
  Time (mins) cpm, 0: "12008 cpm"
- compound: "CC(C)=O [acetone]"
  experimental.system: "iNOS (Mus musculus)"
  Time (mins) cpm, 0: "10201 cpm"
- compound: "C[S+](C)[O-] [DMSO]"
  experimental.system: "iNOS (Mus musculus)"
  Time (mins) cpm, 0: "6630 cpm"

Any idea what Time (mins) cpm, 0 was measured for CO [methanol] ? 12488 cpm
